The reported numbers originate from the supplement of paper PMC13380429.

# Test system: Vero E6 infected with SARS-CoV-2
# RUN DESCRIPTION: inhibition of SARS-CoV-2 cytopathic effect; higher = more antiviral protection, active = above 15
# TEST CONDITIONS: 1 nM; 48 h
Reported values of inhibition of SARS-CoV-2 cytopathic effect for individual entries
Use % as the unit, but write only the number.

Here is how some molecules turned out for inhibition of SARS-CoV-2 cytopathic effect.
CC(C)c1cc(C(=O)N2Cc3ccc(CN4CCN(C)CC4)cc3C2)c(O)cc1O | -1.87
C=CCN1C[C@H](C)N([C@H](c2ccc(C(=O)N(CC)CC)cc2)c2cccc(O)c2)C[C@H]1C | 0.51
COc1ccc(Cl)c(Nc2nc3ccccc3nc2NS(=O)(=O)c2cccc(NC(=O)C(C)(C)N)c2)c1 [pilaralisib] | 0.3

For the molecule shown here, C[C@@H](Oc1cc(-n2cnc3ccc(CN4CCN(C)CC4)cc32)sc1C(N)=O)c1ccccc1C(F)(F)F , give the reported inhibition of SARS-CoV-2 cytopathic effect.
1.38

Same read-out for CCOC(=O)C1=C(C)NC(=S)NC1c1cccc(O)c1 (centres undefined) [monastrol] ?
0.53

Same read-out for COc1ccc2cc1Oc1ccc(cc1)C[C@H]1c3c(cc4c(c3Oc3cc5c(cc3OC)CCN(C)[C@@H]5C2)OCO4)CCN1C [cepharanthine] ?
-0.29

----------
Reported values of morphology score for individual entries
# System: Vero E6 infected with SARS-CoV-2
# RUN DESCRIPTION: morphology score (similarity to uninfected cells); higher = more like uninfected cells
# TEST CONDITIONS: 24 h
Could you respond with only the numeric value?

Here is how some compounds turned out for morphology score.
CC1Sc2c(C(=O)O)c(=O)c3cc(F)c(N4CCNCC4)cc3n21 (stereo not drawn) [ulifloxacin] (10 µM) | -0.0402
O=C(/C=C\n1cnc(-c2cc(C(F)(F)F)cc(C(F)(F)F)c2)n1)N1CC(F)(F)C1 (10 µM) | -0.303
O=C(NNc1ccccc1)c1ccncc1 [plurisin-1] (10 µM) | -0.14

For the compound shown here, O=C(Nc1ccc(Br)cc1)c1cc(Br)cc(Br)c1O [tribomsalan] (10 µM) , give the reported morphology score.
0.043

Same read-out for CCN1CCC[C@H]1CNC(=O)c1c(O)c(Cl)cc(Cl)c1OC [raclopride] (10 µM) ?
0.124

Same read-out for Cc1cccc(Oc2cnc(=O)[nH]c2)c1 [tolimidone] (10 µM) ?
0.147

Same read-out for Cc1ccc(C(=O)Nc2ccc(Oc3cc4cnn(C)c4cc3-c3cn[nH]c3)c(F)c2)c(=O)n1-c1ccc(F)cc1 (0.833333 µM) ?
0.172

Same read-out for CCc1cccc(CC)c1NC(=O)c1nn(C)c2c1CCc1cnc(Nc3ccc(C(=O)NC4CCN(C)CC4)cc3OC(F)(F)F)nc1-2 (10 µM) ?
-0.0668

----------
# Test system: Vero E6 infected with SARS-CoV-2
# RUN DESCRIPTION: morphology score (similarity to uninfected cells); higher = more like uninfected cells
# TEST CONDITIONS: 24 h
Label true (1) for high-side morphology score (at or above 0.09) and false (0) for low-side morphology score (below it).

The following compounds have reported results that may help.
CN1c2cc3c(cc2N=C(c2ccc(C(=O)O)cc2)c2ccccc21)C(C)(C)CCC3(C)C (0.833333 µM) | false (0)
O=C1C2CCN(CC2)C1(CO)CO (10 µM) | true (1)
C[C@@H]1COCCN1c1cc(C2([S@](C)(=N)=O)CC2)nc(-c2ccnc3[nH]ccc23)n1 (0.833333 µM) | false (0)
CC(C)C(=O)Oc1ccc(CO)cc1[C@H](CCN(C(C)C)C(C)C)c1ccccc1 [fesoterodine] (10 µM) | true (1)
CNC(=N)NCCC[C@H](N)C(=O)O [targinine] (10 µM) | false (0)
CC(=O)c1c(O)cc(C)oc1=O [dehydroacetic-acid] (10 µM) | true (1)
CCCCC(=O)O[C@]1(C(=O)CO)CC[C@H]2[C@@H]3CCC4=CC(=O)CC[C@]4(C)[C@H]3[C@@H](O)C[C@@]21C [hydrocortisone-valerate] (10 µM) | false (0)
CC(C)(O)C(=O)Nc1ccc([N+](=O)[O-])c(C(F)(F)F)c1 [2-hydroxyflutamide] (10 µM) | true (1)

morphology score >= 0.09 for O=C(NO)c1cnc(N2CCN(S(=O)(=O)c3ccc4ccccc4c3)CC2)nc1 (10 µM) ?
false (0)

Same read-out for C[C@@H](CN)CC(=O)O [3-methyl-GABA] (10 µM) ?
false (0)

Same read-out for COc1cc(C(=O)NS(=O)(=O)c2ccccc2C)ccc1Cc1cn(C)c2ccc(NC(=O)OC3CCCC3)cc12 [zafirlukast] (10 µM) ?
true (1)

Same read-out for CN1CCN(c2cc3c(cc2F)c(=O)c(C(=O)O)cn3-c2ccc(F)cc2)CC1 [difloxacin] (10 µM) ?
false (0)

Same read-out for CCCCCCOc1ccccc1C(N)=O [exalamide] (10 µM) ?
true (1)

Same read-out for C[C@@H](O)[C@H]1C(=O)N2C(C(=O)[O-])=C(SC3Cn4cnc[n+]4C3)[C@H](C)[C@H]12 (stereo partly specified) [biapenem] (10 µM) ?
false (0)

Same read-out for O=C(c1c2ccccc2cc2ccccc12)N1CCC(N2CCC[C@@H](C(=O)N3CCOCC3)C2)CC1 (10 µM) ?
false (0)
